yeast fitness values by entry
B1: tRNA (parent)
chain: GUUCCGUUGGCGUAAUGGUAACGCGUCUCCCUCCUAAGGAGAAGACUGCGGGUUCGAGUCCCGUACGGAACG

# Variants of: B1
# assay_method_text: yeast fitness relative to wild type (ratio to wild type); higher = fitter; tRNA-Arg(CCU), competitive growth, 37 C, YPD
Fewer inactive variants are shown than the library holds.

# example entries with known answers
C29U C33U A40G U47A: ≤ 0.5
U2A U19G A20U U64C: ≤ 0.5
A15G C55G G56U G68C: ≤ 0.5
U19A C24G C27U C30A U64A A70C: ≤ 0.5
U53A C55A C62U G63A A65U: ≤ 0.5
C22A C24U A36U: ≤ 0.5
C24G C29U U35C: ≤ 0.5
G9C A43U C49A: ≤ 0.5

Prompt: Look at this variant and give its reported yeast fitness. G17C A42C G68A
Completion: ≤ 0.5

Prompt: // query: C11A C30U C31U A36G G39C A45U G52C C60A
Completion: ≤ 0.5

Prompt: // query: A15U U26A A37G U64A
Completion: ≤ 0.5

Prompt: // query: G39U G52A G67U
Completion: ≤ 0.5

Prompt: // query: A15C G17A C29A C30U C62G U64A
Completion: ≤ 0.5

Prompt: // query: C29U A36U A57G G58A
Completion: ≤ 0.5

Prompt: // query: C5A U13G C24G C31A C62U C66U
Completion: ≤ 0.5

Origin of the recorded values: the RNAGym collection of RNA variant scans (doi:10.1126/science.aae0568)
